Value source: patent US20160311795A1

Biological target: human full length Hsp90 (Homo sapiens)
Construct: amino acid residues 1 to 732 of human Hsp90 (GenBank: BC121062.2); made in house; host or cells: E. coli BL21DE3 (pET15b)
Experiment: Fluorescence polarization Hsp90 competitive binding assay (GM-FITC displacement)
Settings: Table 1; 50 nM Hsp90, 9 nM GM-FITC; read-out: Biochemical Potency IC50
pIC50: −log10 of the molar value.
I'd appreciate it if you could supply pIC50 values for the items below.

Here is how some compounds turned out for pIC50.
COc1ccc(CNc2ccnc(N)n2)cc1OC
< 3.60
COc1cc(CNc2ccnc(N)n2)cc(OC)c1OC
< 3.60

Note: attention shifts to another entry.
query: Tell me pIC50 of COc1c(C)cnc(CN(C(=O)CCCCl)c2cc(Cl)nc(N)n2)c1C when tested on human full length Hsp90 (Homo sapiens).
result: ≤ 4.49
